So I've got a bunch of compounds here, and I need their viability increase values.
Assay Remarks: doxorubicin toxicity protection in MRP-1 cells – H69AR cells, CellTiter-Glo, duplicate, MRP-1 activator project, pilot screen (AID 807);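 note: compound pretreatment 18-22 h then 72 h combined with doxorubicin; 0% = doxorubicin alone and 100% = vehicle without doxorubicin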
Test Settings: H69AR viability with doxorubicin, CellTiter-Glo luminescence; at 10 µM; hits give high values
Note: unit % is implicit; provide only the numeric part.

INPUT: Need viability increase, item `CCOC(=O)c1ccc2[nH]c(C)cc(=O)c2c1`
OUTPUT: -0.4

INPUT: Item CCOC(=O)C(CC)n1nc(C)n2c(cc3sccc32)c1=O (stereo unspecified) has what recorded viability increase?
OUTPUT: -2.34

INPUT: Name the recorded viability increase for Cc1ccc2c(c1)C1CCCC3C1N2CC(=O)N3Cc1ccccc1 (stereo unspecified) .
OUTPUT: -0.44

INPUT: So what does the record say about viability increase for O=P(O)(CN1CCCCC1)C1CCCCC1O (stereo unspecified) ?
OUTPUT: -1.71

INPUT: Given CC(Sc1nc(-c2ccccc2)cc(C(F)(F)F)n1)C(=O)N1CCCC1 (stereo unspecified) , state its recorded viability increase.
OUTPUT: -2.25

INPUT: // viability increase lookup, key: `C=C(Cl)COc1ccc2c(C)cc(=O)oc2c1`
OUTPUT: -0.42

INPUT: Reported viability increase, compound `CC(=O)c1sc(NC(=O)c2ccccc2F)nc1C` : ____
OUTPUT: -0.32

INPUT: Data request, read-out viability increase, for Cc1ccc(C(=O)NC(Cc2c[nH]c3ccccc23)C(=O)O)o1 (stereo unspecified)
OUTPUT: -3.09

INPUT: // viability increase lookup, key: Cc1ccc(CNC(=O)C2CCCN(S(=O)(=O)c3cnc[nH]3)C2)cc1 (stereo unspecified)
OUTPUT: 0.52

INPUT: Which measured viability increase value corresponds to CC(C)CC1NC2(C(=O)N(C)c3ccccc32)C2C(=O)N(C(C)C)C(=O)C12 (stereo unspecified) ?
OUTPUT: -1.13

INPUT: GET /values?readout=viability increase&item= `COc1ccc(-c2nn(-c3ccccc3)cc2/C=N/n2cnnc2)cc1OC`
OUTPUT: -4.33

INPUT: Could you share which viability increase value was measured for `COc1c(C(=O)Nc2c(C)n(C)n(-c3ccccc3)c2=O)ccc2ccccc12` ?
OUTPUT: -0.81

INPUT: What does the record list as viability increase for `Cc1cc(=O)oc2cc(OCC#N)ccc12` ?
OUTPUT: 1.11

INPUT: Param item = `Cc1[nH]c2ccccc2c(=O)c1CN1CCCCC1` ; retrieve measured viability increase.
OUTPUT: -0.38

INPUT: Report viability increase for `Cc1noc(C)c1S(=O)(=O)N(CC(=O)N1CCc2ccccc21)c1ccc(C(C)C)cc1` please.
OUTPUT: -5.04

INPUT: So what does the record say about viability increase for `COc1cc(OC)c(NS(=O)(=O)c2coc(C(N)=O)c2)cc1Cl` ?
OUTPUT: -3.53

INPUT: Quick check: viability increase of `Cc1c(-n2c(CN3C(=O)c4ccccc4C3=O)nc3ccccc3c2=O)c(=O)n(-c2ccccc2)n1C` ?
OUTPUT: -1.08

INPUT: Recorded viability increase of `O=C(c1cnc2n(c1=O)CCS2)N(C1CCCCC1)C1CCCCC1` , please.
OUTPUT: -2.34

INPUT: // viability increase lookup, key: `Brc1cccc(-c2nnc(SCc3ccon3)n2-c2ccccc2)c1`
OUTPUT: -5.94

INPUT: What viability increase value was documented for this compound, `COc1cccc(-c2nnc(NC(C)=O)o2)c1` ?
OUTPUT: -1

INPUT: Recorded viability increase of `Cc1c(NC(=O)c2ccc(Br)o2)c(=O)n(-c2ccccc2)n1C` , please.
OUTPUT: 0.9

INPUT: What does the record list as viability increase for CCCCCOC(=O)NCC(O)c1ccccc1 (stereo unspecified) ?
OUTPUT: -1.52

INPUT: Find the recorded viability increase belonging to C=CCOc1ccc(C2c3c(oc4ccccc4c3=O)C(=O)N2c2ccccn2)cc1OCC (stereo unspecified) and report it.
OUTPUT: -5.39

INPUT: Form field: reported viability increase of `CCCCOC(=O)Nc1nc2ccc(OC)cc2s1`
OUTPUT: 2.27

INPUT: Please look up its viability increase: `O=C(CSc1nc2c(cnn2-c2ccc(F)cc2)c(=O)[nH]1)N1CCCCCC1`
OUTPUT: -3.34

INPUT: Value lookup for viability increase; key = Cc1ccc(C(C)C)c(OCCCN2CC(C)OC(C)C2)c1 (stereo unspecified)
OUTPUT: -2.59

INPUT: Which value of viability increase has been reported for `O=C(Nc1nnc(N2CCCCCC2)s1)c1cc(-c2ccc(Br)cc2)on1` in the records?
OUTPUT: 2.89

INPUT: # get_value(readout='viability increase', item= Cn1c(=O)oc2cc(S(=O)(=O)N3CCCC(C(=O)N4CCc5ccccc5C4)C3)ccc21 (stereo unspecified) )
OUTPUT: -2.62

INPUT: Tell me the measured viability increase of CCC(C)NC(=O)C(NS(=O)(=O)c1ccc2c(c1)c(=O)n(C)c(=O)n2C)c1ccccc1 (stereo unspecified) , please.
OUTPUT: -1.17

INPUT: Consider the compound shown here: `CN1CCN(C(=O)c2ccccc2NC(=O)c2cccs2)CC1` What is its recorded viability increase?
OUTPUT: -2.33

INPUT: Suppose we examine the compound `O=C(Nn1c(=S)[nH]c2ccccc2c1=O)c1ccncc1` ; what viability increase value has been reported?
OUTPUT: -2.87

INPUT: Reported viability increase, compound `COc1ccc(-n2c(Cc3cccn3C)nnc2SCC(=O)Nc2ccccc2C)cc1` : ____
OUTPUT: -2.39

INPUT: For the compound shown here, O=C(CC1NC(=O)NC1=O)NC1(C(=O)NC2CCCCC2)CCCCC1 (stereo unspecified) , give the reported viability increase.
OUTPUT: 0.88

INPUT: Consider the compound shown here: `C=CCSc1nc2sc(C)c(C)c2c(=O)[nH]1` What is its recorded viability increase?
OUTPUT: 0.97

INPUT: Entry `CC1CCN(C(=O)Cn2cc3c(n2)CCCC3)CC1` : reported viability increase = ?
OUTPUT: 0.91

INPUT: Look at this compound and give its reported viability increase. `COc1ccccc1NC(=O)N(Cc1ccccc1)c1ccccn1`
OUTPUT: 0.35

INPUT: Entry under review: CC1=C(C(=O)Nc2ccc(F)cc2)C(c2cccc(C)c2)n2nc(CCCO)nc2N1 (stereo unspecified) . Reported viability increase?
OUTPUT: -0.66

INPUT: What measured viability increase goes with `Cn1c(=O)oc2cc(S(=O)(=O)N3CCN(c4ccccn4)CC3)ccc21` ?
OUTPUT: -5.33

INPUT: Report viability increase for `CN(C)S(=O)(=O)c1ccc2c(c1)c(=O)c(C(=O)NCCCN1CCCCCC1)cn2C` please.
OUTPUT: -1.28

INPUT: Item `CCOC(=O)c1[nH]c(C)c(C(=O)OCC)c1C` has what recorded viability increase?
OUTPUT: 2.18

INPUT: Can you share its viability increase? I mean this compound: `CSc1ccc(Cl)c(C(=O)NCc2ccco2)c1`
OUTPUT: -3.7

INPUT: Recorded viability increase of `COCCCNC(=O)c1cc2c(-c3ccc(Cl)cc3)nn(C)c2s1` , please.
OUTPUT: -6.69

INPUT: Looking for the measured viability increase of `Cc1cc(/C=N/n2cnnc2)c(C)n1-c1ccc(C(=O)O)cc1` , can you help?
OUTPUT: 1.76

INPUT: What value of viability increase has been reported for the following compound? `O=P(/C(=N/O)Sc1ccccc1)(N1CCOCC1)N1CCOCC1`
OUTPUT: -4.88

INPUT: Any idea what its viability increase is? The compound is `CCOC(=O)N1CCC(NC(=O)CN2C(=O)CCSc3ccccc32)CC1`
OUTPUT: 1.02

INPUT: Could you tell me which viability increase is on file for `CN1CCN(C(=O)c2ccc(CS(=O)(=O)c3c(Cl)cccc3Cl)o2)CC1` ?
OUTPUT: 0.72

Values were extracted from PubChem BioAssay.
